# experiment-description: Biodistribution in baboon lung at 340 mg, iv after 90 mins
# Format: ADME, organism-based
# conditions-used: papio hamadryas, read-out: Drug uptake
measured-metric: concentration at 1.5 h

- N[11C](=O)c1cnccn1: 18600 ng/mL

###

# experiment-description: Biodistribution in baboon kidney medulla at 170 mg, iv after 15 mins
# Format: ADME, organism-based
# conditions-used: papio hamadryas, read-out: Drug uptake
measured-metric: concentration at 0.25 h (ng/mL)

- CO[C@H]1/C=C/O[C@@]2(C)Oc3c(C)c(O)c4cc(c(/C=N/N5CCN([11CH3])CC5)c(O)c4c3C2=O)NC(=O)/C(C)=C\C=C\C(C)[C@H](O)[C@@H](C)[C@@H](O)[C@@H](C)[C@H](OC(C)=O)[C@@H]1C (stereo partly specified): 36400

###

# experiment-description: Biodistribution in baboon heart at 85 mg, iv after 60 mins
# Assay type: ADME, organism-based
# conditions-used: papio hamadryas, read-out: Drug uptake
measured-metric: concentration at 1 h

* NN[11C](=O)c1ccncc1 | 3740 ng/mL

###

# experiment-description: Biodistribution in baboon whole brain at 85 mg, iv after 90 mins
# Format: ADME, organism-based
# conditions-used: papio hamadryas, read-out: Drug uptake
measured-metric: concentration at 1.5 h (ng/mL)

- NN[11C](=O)c1ccncc1: 1750

###

# experiment-description: Biodistribution in baboon kidney medulla at 340 mg, iv after 60 mins
# Assay type: ADME, organism-based
# conditions-used: papio hamadryas, read-out: Drug uptake
measured-metric: concentration at 1 h

- N[11C](=O)c1cnccn1: 343 µg/mL

###

# experiment-description: Biodistribution in baboon kidney cortex at 170 mg, iv after 15 mins
# Format: ADME, organism-based
# conditions-used: papio hamadryas, read-out: Drug uptake
measured-metric: concentration at 0.25 h (ng/mL)

* CO[C@H]1/C=C/O[C@@]2(C)Oc3c(C)c(O)c4cc(c(/C=N/N5CCN([11CH3])CC5)c(O)c4c3C2=O)NC(=O)/C(C)=C\C=C\C(C)[C@H](O)[C@@H](C)[C@@H](O)[C@@H](C)[C@H](OC(C)=O)[C@@H]1C (stereo partly specified) | 15800

###

# experiment-description: Biodistribution in baboon liver at 340 mg, iv after 30 mins
# Type: ADME, organism-based
# conditions-used: papio hamadryas, read-out: Drug uptake
measured-metric: concentration at 0.5 h (ng/mL)

* N[11C](=O)c1cnccn1 | 27000

###

# experiment-description: Biodistribution in baboon plasma at 170 mg, iv after 90 mins
# Assay type: ADME, organism-based
# conditions-used: papio hamadryas, read-out: Drug uptake
measured-metric: concentration at 1.5 h (ng/mL)

- CO[C@H]1/C=C/O[C@@]2(C)Oc3c(C)c(O)c4cc(c(/C=N/N5CCN([11CH3])CC5)c(O)c4c3C2=O)NC(=O)/C(C)=C\C=C\C(C)[C@H](O)[C@@H](C)[C@@H](O)[C@@H](C)[C@H](OC(C)=O)[C@@H]1C (stereo partly specified): 1160

###

# experiment-description: Biodistribution in baboon whole brain at 85 mg, iv after 30 mins
# Format: ADME, organism-based
# conditions-used: papio hamadryas, read-out: Drug uptake
measured-metric: concentration at 0.5 h (ng/mL)

- NN[11C](=O)c1ccncc1: 2540
